Data origin, for the record: PubChem BioAssay (NCATS)

Molecular target: Cellular tumor antigen p53 (Homo sapiens) (UniProt P04637)
Sequence (P04637 whole entry, looked up): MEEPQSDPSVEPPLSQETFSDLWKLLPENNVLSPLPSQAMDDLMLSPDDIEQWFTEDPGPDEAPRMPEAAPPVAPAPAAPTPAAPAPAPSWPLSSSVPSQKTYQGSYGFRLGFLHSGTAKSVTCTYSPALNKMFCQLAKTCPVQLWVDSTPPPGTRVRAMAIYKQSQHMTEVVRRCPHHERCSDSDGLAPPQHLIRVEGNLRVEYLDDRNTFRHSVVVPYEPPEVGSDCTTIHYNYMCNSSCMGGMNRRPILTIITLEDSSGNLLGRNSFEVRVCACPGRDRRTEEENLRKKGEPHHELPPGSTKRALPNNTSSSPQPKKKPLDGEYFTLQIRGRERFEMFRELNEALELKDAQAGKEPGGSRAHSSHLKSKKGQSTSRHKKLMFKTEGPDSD
Assay: Primary qHTS for small molecule compounds that upregulate eGFP-tagged delta133p53alpha (in N-terminal) cells. (AID 2060322);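 also: cells pre-induced with doxycycline then dosed without doxycycline; series mostly up to about 56 µM; 0% = DMSO vehicle and 100% = reference activator; nearly all actives have a fitted effect of over 75% in size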
Settings: NCI-H358 eGFP-delta133p53alpha fluorescence, 24 h; hits give high values
Inconclusive results are not listed. Where a SMILES comes first, the peptide text is derived from it. The star is where a group is joined. Cbz = O=C(OCc1ccccc1)*
Output class 1 for activation not less than 10%; output class 0 otherwise.

# Molecule, Group
rows = [
    ("CCOc1nc2cccc(C(=O)O)c2n1Cc1ccc(-c2ccccc2-c2noc(=O)[nH]2)cc1", "class 0"),
    ("CNCc1ccc(-c2[nH]c3cc(F)cc4c3c2CCNC4=O)cc1", "class 1"),
    ("CC(C)[C@H](NC(=O)OCc1ccccc1)C(=O)N[C@H](C=O)Cc1ccccc1 (Cbz-Val-Phe-aldehyde)", "class 0"),
    ("CC(=O)NC(C)c1ccc(Oc2ccc(OC(C)C)cc2)cc1 (stereo not drawn)", "class 1"),
    ("O=[N+]([O-])c1ccc(-c2nc(-c3ccc(F)cc3)c(-c3ccncc3)[nH]2)cc1", "class 1"),
    ("CC1=C2CC(O)(C(C)(C)O)C(O[C@@H]3O[C@H](CO)[C@@H](O)[C@H](O)[C@H]3O)CC(C)C2CC1=O (stereo partly drawn)", "class 0"),
    ("Cc1sc2c(c1C)C(c1ccc(Cl)cc1)=N[C@@H](CC(=O)Nc1ccc(OCCOCCOCCOCCNc3cccc4c3C(=O)N(C3CCC(=O)NC3=O)C4=O)cc1)c1nnc(C)n1-2 (stereo partly drawn)", "class 1"),
]
